# assay overview: 8-day repeat-dose study, tolerability (blood chemistry, hematology, adverse events) in tumor-bearing dogs
# Format: in vivo, dog
# measurement parameters: Dog 4; Post: 30 min after last injection on day 8; 10 mg s.c. once daily for 8 days
# Protocol: Previous studies utilizing repeat dosing in mice and rats established safe starting doses for studies using dogs. […] Blood levels of AFPep were measured before and 30 minutes following its administration on the first day and eighth day of treatment with AFPep. […] Tolerability was assessed using the Veterinary Cooperative Oncology Group Common Terminology Criteria for Adverse Events. […]
Where a SMILES comes first, the peptide text is derived from it. [ ]: non-standard residue; d: D form. Hyp = O=C(O)[C@@H]1C[C@@H](O)CN1
property name: Calcium (mg/dL)
Give just the numeric value; mg/dL need not be written.

Lookup: Consider the molecule CC(C)[C@@H]1NC(=O)[C@@H]2C[C@@H](O)CN2C(=O)[C@H]([C@@H](C)O)NC(=O)[C@H](CCCCN)NC(=O)[C@H](CCC(=O)O)NC(=O)[C@H](CC(N)=O)NC(=O)CNC(=O)[C@@H]2C[C@@H](O)CN2C(=O)[C@H](CC(N)=O)NC1=O [AFPep] (cyclo(EKT[Hyp]VN[Hyp]GN)) and give its recorded Calcium.
Found: 10

====

# assay overview: 8-day repeat-dose study, tolerability (blood chemistry, hematology, adverse events) in tumor-bearing dogs
# Type: in vivo, dog
# measurement parameters: Dog 3; Post: 30 min after last injection on day 8; 10 mg s.c. once daily for 8 days
Where a SMILES comes first, the peptide text is derived from it. [ ]: non-standard residue; d: D form. Hyp = O=C(O)[C@@H]1C[C@@H](O)CN1
property name: Bilirubin Conj.

Lookup: Consider the compound CC(C)[C@@H]1NC(=O)[C@@H]2C[C@@H](O)CN2C(=O)[C@H]([C@@H](C)O)NC(=O)[C@H](CCCCN)NC(=O)[C@H](CCC(=O)O)NC(=O)[C@H](CC(N)=O)NC(=O)CNC(=O)[C@@H]2C[C@@H](O)CN2C(=O)[C@H](CC(N)=O)NC1=O [AFPep] (cyclo(EKT[Hyp]VN[Hyp]GN)) and give its recorded Bilirubin Conj..
Found: 0.1 mg/dL

====

# assay overview: Pharmacokinetics in mice
# Assay type: in vivo
# measurement parameters: iv; mouse; 4 mg/kg (100 µg/mouse); plasma LC/MS/MS; non-linear regression, first-order PK model
Where a SMILES comes first, the peptide text is derived from it. [ ]: non-standard residue; d: D form. Hyp = O=C(O)[C@@H]1C[C@@H](O)CN1
property name: Cmax (ng/mL)
Give just the numeric value; ng/mL need not be written.

Lookup: Consider the compound CC(C)[C@@H]1NC(=O)[C@@H]2C[C@@H](O)CN2C(=O)[C@H]([C@@H](C)O)NC(=O)[C@H](CCCCN)NC(=O)[C@H](CCC(=O)O)NC(=O)[C@H](CC(N)=O)NC(=O)CNC(=O)[C@@H]2C[C@@H](O)CN2C(=O)[C@H](CC(N)=O)NC1=O [AFPep] (cyclo(EKT[Hyp]VN[Hyp]GN)) and give its recorded Cmax.
Found: 12000

====

# assay overview: 8-day repeat-dose study, tolerability (blood chemistry, hematology, adverse events) in tumor-bearing dogs
# Type: in vivo, dog
# measurement parameters: Dog 3; Post: 30 min after last injection on day 8; 10 mg s.c. once daily for 8 days
Where a SMILES comes first, the peptide text is derived from it. [ ]: non-standard residue; d: D form. Hyp = O=C(O)[C@@H]1C[C@@H](O)CN1
property name: ALT (U/L)
Give just the numeric value; U/L need not be written.

Lookup: Consider the compound CC(C)[C@@H]1NC(=O)[C@@H]2C[C@@H](O)CN2C(=O)[C@H]([C@@H](C)O)NC(=O)[C@H](CCCCN)NC(=O)[C@H](CCC(=O)O)NC(=O)[C@H](CC(N)=O)NC(=O)CNC(=O)[C@@H]2C[C@@H](O)CN2C(=O)[C@H](CC(N)=O)NC1=O [AFPep] (cyclo(EKT[Hyp]VN[Hyp]GN)) and give its recorded ALT.
Found: 39
